Cited source: PubChem BioAssay AID1963864

tested on: KRAS PDC multicell spheroid viability; assay: Anticancer human tumor 521955-158-R6-J3-PDC patient-derived pancreatic carcinoma cell line growth inhibition [KRAS2]; settings: second compound 1 µM; first compound 0.0316 µM; stronger effect = lower value
I'd appreciate it if you could supply viability, T/C values for the items below.
Write the answer as a number in %, unit excluded.

Provide KRAS PDC multicell spheroid viability viability, T/C reading for CC1OCC2(CCN(c3cnc(Sc4ccnc(N)c4Cl)c(N)n3)CC2)C1N (stereo not given) + C=CC(=O)N1CCN(c2nc(OCC3CCCN3C)nc3c2CCN(c2cccc4cccc(C)c24)C3)CC1CC#N .
75.7

System KRAS PDC multicell spheroid viability. Read-out viability, T/C. Item CC1COCCN1c1cc(-c2ccnn2C)c2ccnc(-c3ccn[nH]3)c2n1 (stereo not given) + C=CC(=O)N1CCN(c2nc(OCC3CCCN3C)nc3c2CCN(c2cccc4cccc(C)c24)C3)CC1CC#N . Report value.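 Also: drug exposure lasted seven days; 100% = DMSO vehicle wells and lower means fewer viable cells.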
79

State measured viability, T/C of the compound CC1COCCN1c1cc(-c2ccnn2C)c2ccnc(-c3ccn[nH]3)c2n1 (stereo not given) + CNCc1ccccc1-c1csc(C(C)Nc2nc(C)nc3cc(OC)c(OC)cc23)c1 with KRAS PDC multicell spheroid viability.
63.3

Please look at CC1(C)CCC(CN2CCN(c3ccc(C(=O)NS(=O)(=O)c4ccc(NCC5CCOCC5)c([N+](=O)[O-])c4)c(Oc4cnc5[nH]ccc5c4)c3)CC2)=C(c2ccc(Cl)cc2)C1 + CNCc1ccccc1-c1csc(C(C)Nc2nc(C)nc3cc(OC)c(OC)cc23)c1 and tell me its recorded viability, T/C on KRAS PDC multicell spheroid viability.
83

Provide viability, T/C, system KRAS PDC multicell spheroid viability, entry CCN1CCN(Cc2ccc(Nc3ncc(F)c(-c4cc(F)c5nc(C)n(C(C)C)c5c4)n3)nc2)CC1 + CC1OCC2(CCN(c3cnc(Sc4ccnc(N)c4Cl)c(N)n3)CC2)C1N;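 also: drug exposure lasted seven days; 100% = DMSO vehicle wells and lower means fewer viable cells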
97

Enter viability, T/C (test system KRAS PDC multicell spheroid viability) for CC(=O)OC12COC1CC(O)C1(C)C(=O)C(O)C3=C(C)C(OC(=O)C(O)C(NC(=O)OC(C)(C)C)c4ccccc4)CC(O)(C(OC(=O)c4ccccc4)C21)C3(C)C (stereo not given) + COc1cc2nc(C)nc(NC(C)c3cc(N)cc(C(F)(F)F)c3)c2cc1OC1CCOC1;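 also: drug exposure lasted seven days; 100% = DMSO vehicle wells and lower means fewer viable cells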
67.3

Given CN(C)C/C=C/C(=O)Nc1cc2c(Nc3ccc(F)c(Cl)c3)ncnc2cc1O[C@H]1CCOC1 + COc1cc2nc(C)nc(NC(C)c3cc(N)cc(C(F)(F)F)c3)c2cc1OC1CCOC1 , report its viability, T/C on KRAS PDC multicell spheroid viability.
56.1

Report value only: viability, T/C, KRAS PDC multicell spheroid viability, CN(C)C/C=C/C(=O)Nc1cc2c(Nc3ccc(F)c(Cl)c3)ncnc2cc1O[C@H]1CCOC1 + C=CC(=O)N1CCN(c2nc(OCC3CCCN3C)nc3c2CCN(c2cccc4cccc(C)c24)C3)CC1CC#N
64.1

Give reported viability, T/C for Cn1ncnc1[C@H]1c2n[nH]c(=O)c3cc(F)cc(c23)N[C@@H]1c1ccc(F)cc1 + CNCc1ccccc1-c1csc(C(C)Nc2nc(C)nc3cc(OC)c(OC)cc23)c1 (KRAS PDC multicell spheroid viability)
78.4

Consider the compound COc1cc2nccc(Oc3ccc(NC(=O)C4(C(=O)Nc5ccc(F)cc5)CC4)cc3)c2cc1OC + CC1OCC2(CCN(c3cnc(Sc4ccnc(N)c4Cl)c(N)n3)CC2)C1N tested on KRAS PDC multicell spheroid viability; state its viability, T/C.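 Also: drug exposure lasted seven days; 100% = DMSO vehicle wells and lower means fewer viable cells.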
116
